- Tested on: MCF7
- testDescription: Antiproliferative activity against human MCF7 cells assessed as cell viability after 72 hrs by MTT assay
- Format: functional, cell-based
- measurementParameters: MCF7, 72 h
measurementKind: IC50 (µM)
Numbers only, in µM.

Consider the following illustrative entries.
1. CO[C@H]1N(C(=O)OC(C)(C)C)c2ccccc2[C@@]12CN=C(Nc1ccc(C(F)(F)F)cc1)S2 (racemic): 26.5
2. CO[C@@H]1N(C(=O)OC(C)(C)C)c2ccccc2[C@@]12CN=C(Nc1ccc(Cl)cc1)S2 (racemic): 16
3. CC(C)(C)OC(=O)n1cc(CNC(=S)Nc2ccc(Br)cc2)c2ccccc21: 8.5

Now consider a different compound.
Q: Given CO[C@@H]1N(C(=O)OC(C)(C)C)c2ccccc2[C@@]12CN=C(NC1CCCCC1)S2 (racemic) , respond with its IC50.
A: 37.2

###

- Test system: HeLa
- testDescription: Antiproliferative activity against human HeLa cells assessed as cell viability after 72 hrs by MTT assay
- Type: functional, cell-based
Assignment: determine reported IC50 for the given molecules.
Answers are plain numbers, in µM.

Worked examples, 6 molecules total:
1) O=[N+]([O-])c1ccc(NC2=NCc3c([nH]c4ccccc34)S2)cc1: 9.3
2) CC(C)(C)OC(=O)N1c2ccccc2[C@@]2(CN=C(Nc3ccccc3)S2)[C@H]1O (racemic): 72.4
3) CO[C@@H]1N(C(=O)OC(C)(C)C)c2ccccc2[C@@]12CN=C(N1CCCCC1)S2 (racemic): 62.3
4) CO[C@@H]1N(C(=O)OC(C)(C)C)c2ccccc2[C@@]12CN=C(Nc1ccc(C)cc1)S2 (racemic): 23
5) CO[C@H]1N(C(=O)OC(C)(C)C)c2ccccc2[C@@]12CN=C(NC1CCCCC1)S2 (racemic): 32
6) CO[C@@H]1N(C(=O)OC(C)(C)C)c2ccccc2[C@@]12CN=C(Nc1cc(C(F)(F)F)cc(C(F)(F)F)c1)S2 (racemic): 34.2

Q: Give IC50; test system HeLa; molecule "c1ccc2c3c([nH]c2c1)SC(N1CCOCC1)=NC3"
A: 72.5

###

- Test system: HeLa
- testDescription: Antiproliferative activity against human HeLa cells assessed as cell viability after 72 hrs by MTT assay
- Assay type: functional, cell-based
measurementKind: pIC50
Numbers only, as −log10 of the molar value.

1. CO[C@H]1N(C(=O)OC(C)(C)C)c2ccccc2[C@@]12CN=C(Nc1ccc(F)cc1)S2 (racemic): 4.54
2. CO[C@@H]1N(C(=O)OC(C)(C)C)c2ccccc2[C@@]12CN=C(Nc1ccc(Cl)cc1)S2 (racemic): 5.00
3. CC(C)(C)OC(=O)n1cc(CNC(=S)Nc2ccc(Br)cc2)c2ccccc21: 5.35
4. Cc1ccc(NC(=S)NCc2cn(C(=O)OC(C)(C)C)c3ccccc23)cc1: 4.54

Quick request: pIC50 for each listed item, please.
1. CON1c2ccccc2C2(CN=C(SC)S2)C1O (racemic)
2. CO[C@H]1N(C(=O)OC(C)(C)C)c2ccccc2[C@@]12CN=C(Nc1ccc(Br)cc1)S2 (racemic)
3. CSC1=NC[C@]2(S1)c1ccccc1N(C(=O)OC(C)(C)C)[C@@H]2O (racemic)
4. c1ccc2c3c([nH]c2c1)SC(NC1CCCCC1)=NC3

A:
1. 4.00
2. 4.55
3. 4.11
4. 4.19
